As shown below, each of these compounds has a reported Antimicrobial Activity (MIC) P. aeruginosa value.
- Tested on: Pseudomonas aeruginosa ATCC 27853
- Format: cell-based
- Test Context: ATCC 27853
Where a SMILES comes first, the peptide text is derived from it. [ ]: non-standard residue; d: D form. Bip = N[C@@H](Cc1ccc(-c2ccccc2)cc1)C(=O)O; Lys(N3) = [N-]=[N+]=NCCCC[C@H](N)C(=O)O
Provide only the numeric value, understood in µg/mL.

Example entries begin here.
Compound: [N-]=[N+]=NCCCC[C@H](NC(=O)[C@H](Cc1ccccc1)NC(=O)[C@H](CCCNC(=N)N)NC(=O)[C@H](Cc1ccc(-c2ccccc2)cc1)NC(=O)[C@H](Cc1ccc(-c2ccccc2)cc1)NC(=O)[C@@H](N)CCCNC(=N)N)C(N)=O [2c] (H-R[Bip][Bip]RF[Lys(N3)]-NH2)
Uom: µg/mL
Recorded Value: 16
//
Compound: [N-]=[N+]=NCCCC[C@H](NC(=O)[C@H](Cc1ccccc1)NC(=O)[C@H](CCCNC(=N)N)NC(=O)[C@H](Cc1c[nH]c2ccccc12)NC(=O)[C@H](Cc1c[nH]c2ccccc12)NC(=O)[C@@H](N)CCCNC(=N)N)C(N)=O [1c] (H-RWWRF[Lys(N3)]-NH2)
Uom: µg/mL
Recorded Value: 64
//
Compound: [N-]=[N+]=NCCCC[C@@H]1NC(=O)[C@H](Cc2ccccc2)NC(=O)[C@H](CCCNC(=N)N)NC(=O)[C@H](Cc2c[nH]c3ccccc23)NC(=O)[C@H](Cc2c[nH]c3ccccc23)NC(=O)[C@H](CCCNC(=N)N)NC1=O [1d] (cyclo(RWWRF[Lys(N3)]))
Uom: µg/mL
Recorded Value: 128

Please examine the following record next.
Provide only the value of recorded Antimicrobial Activity (MIC) P. aeruginosa for [N-]=[N+]=NCCCC[C@@H]1NC(=O)[C@H](Cc2ccccc2)NC(=O)[C@H](CCCNC(=N)N)NC(=O)[C@H](Cc2ccc(-c3ccccc3)cc2)NC(=O)[C@H](Cc2ccc(-c3ccccc3)cc2)NC(=O)[C@H](CCCNC(=N)N)NC1=O [2d] (cyclo(R[Bip][Bip]RF[Lys(N3)]))
256
